Assay: NCI Yeast Anticancer Drug Screen. Data for the mec2-1 strain (AID 157)
Conditions: S. cerevisiae mec2-1 strain, at 5.0 µM (retest, dose inferred, filed as 0.5), active compounds read high
The panel holds about 79,000 compounds, 15% with a hit somewhere; the sample as a whole holds those more often.
Measured growth inhibition, listed per entry for reference.
Expressed in %, but write only the number.

Consider the worked cases shown below.
Q: Quick one: growth inhibition of `CC[C@@]1(O)C(=O)OCc2c1cc1n(c2=O)Cc2cc3cc4c(cc3nc2-1)OCO4` ?
Ans: 97

Q: Moving on to the next compound: `ClCCN(CCCl)CCN1c2ccccc2Sc2ccc3ccccc3c21`
Ans: 2

Q: And the next one, COC1CC(CC2CCC(C)C(C(C)C(=O)O)O2)OC2(OC(C)(C3CCC(C)(C4OC(C5OC(O)(CO)C(C)CC5C)CC4C)O3)CC2C)C1C (centres undefined) ?
Ans: 28

Q: Next record, please: `CCOc1c(Br)cc(/C=C/[N+](=O)[O-])cc1OC`
Ans: 61

Q: Field entry: `CC(=O)C(Br)C(C)=O.CC(=O)C(Br)C(C)=O.CC(=O)C(Br)C(C)=O.[Rh]`
Ans: -22

Q: Another compound: COc1ccc2c3c1OC1C(=O)C4CC5(c6c(O)ccc(O)c64)C(C2)N(C)CCC315 (centres undefined)
Ans: -2

Q: Also `CCc1cc2c(cc1-c1csc(C/C(N)=N/O)n1)C(C)(C)CCC2(C)C` , if possible.
Ans: 38

Q: Cool, now `CN(CCc1ccc(Br)cc1)CCN1CCCCC1`
Ans: 13

Q: One more compound: Cc1ccc(S(=O)(=O)OC2CCC3C4CC=C5CC(SC(=N)N)CCC5(C)C4CCC23C)cc1 (centres undefined)
Ans: 37

Q: Continue with O=C1c2ccccc2[Se](=O)N1c1ccccc1 (centres undefined)
Ans: 61

Continuing:
Q: Could you share which growth inhibition value was measured for `CC#C[P+](c1ccccc1)(c1ccccc1)c1ccccc1` ?
Ans: 87

Q: Next record, please: `CC(C)CCC[C@@H](C)[C@H]1CC[C@H]2[C@@H]3CC[C@H]4C[C@H](NCCCl)CC[C@]4(C)[C@H]3CC[C@]12C`
Ans: 15

Q: Continue with `O=[N+]([O-])C(Br)(Br)CCC(Br)(Br)[N+](=O)[O-]`
Ans: 99

Q: Follow-up entry: COC(=O)C(F)C(Br)C(=O)OC (centres undefined)
Ans: 93

Q: Try this compound too: `CC[N-]c1nnnn1CC.[Au+].c1ccc([PH+](c2ccccc2)c2ccccc2)cc1`
Ans: 99

Q: Same question for `O=P(c1ccccc1)(c1ccccc1)c1ccccc1.O=P(c1ccccc1)(c1ccccc1)c1ccccc1.S=C=[N][Sn]([N]=C=S)([N]=C=S)[c]1ccccc1` please.
Ans: 21

---

Assay: NCI Yeast Anticancer Drug Screen. Data for the mec2-1 strain (AID 157)
Details: S. cerevisiae mec2-1 strain, at 5.0 µM (retest, dose inferred, filed as 0.5)
The panel holds about 79,000 compounds, 15% with a hit somewhere; the sample as a whole holds those more often. The source made the active and inactive calls. Rule as the data show it: active = growth inhibition above about 70%; inactive = the rest.
In this exercise, the only acceptable responses are active, inactive

Consider the worked cases shown below.
Q: Returns: the outcome recorded for `Cc1cccc(NC(=O)CBr)c1` in this assay.
Ans: inactive

Q: How about this compound: `O=C(O)c1cc([N+](=O)[O-])c(Cl)c([N+](=O)[O-])c1Cl`
Ans: active

Q: Same question for `CC(C)(C)CC(C)(C)c1ccc(O)cc1` please.
Ans: inactive

More entries:
Q: Please indicate how the test categorized `CC1=C(N2CC2)C(=O)c2ccccc2C1=O` .
Ans: inactive

Q: Next entry: OC1CCCC[CH]1[Hg][Cl] (centres undefined)
Ans: active

Q: Same question for COC1=C(C)C(=O)C2=C(C1=O)C(CO)N1C(C#N)C3CC4C(C1C2N1CCOC41)N3C (centres undefined) please.
Ans: inactive
